- Experiment notes: Plasma concentration in rat at 1 mg/kg, po administered for 4 hrs by LC/MS analysis
- Type: ADME, organism-based

{"Chem smiles": "O=C(Nc1cccnn1)N1CCC(=Cc2cccc(Oc3ccc(C(F)(F)F)cn3)c2)CC1", "concentration at 4 h (nM)": 540}

----------
- Assayed target: Fatty-acid amide hydrolase 1 (Homo sapiens)
- Sequence (O00519 whole entry): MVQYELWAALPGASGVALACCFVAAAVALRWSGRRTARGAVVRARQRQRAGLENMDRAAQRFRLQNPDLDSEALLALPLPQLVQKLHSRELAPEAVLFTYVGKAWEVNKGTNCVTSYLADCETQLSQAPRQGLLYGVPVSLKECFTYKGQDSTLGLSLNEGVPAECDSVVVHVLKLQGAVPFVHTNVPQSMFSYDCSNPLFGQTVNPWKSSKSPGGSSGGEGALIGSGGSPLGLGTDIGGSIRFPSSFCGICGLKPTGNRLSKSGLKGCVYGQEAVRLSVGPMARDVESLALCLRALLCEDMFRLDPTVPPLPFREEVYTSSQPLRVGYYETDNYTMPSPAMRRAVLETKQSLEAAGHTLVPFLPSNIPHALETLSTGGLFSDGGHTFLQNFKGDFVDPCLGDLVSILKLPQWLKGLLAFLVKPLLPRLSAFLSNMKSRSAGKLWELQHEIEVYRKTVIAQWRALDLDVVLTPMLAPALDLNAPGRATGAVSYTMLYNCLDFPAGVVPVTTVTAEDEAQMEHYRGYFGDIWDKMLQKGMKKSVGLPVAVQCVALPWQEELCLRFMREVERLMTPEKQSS
- Experiment notes: Inhibition of human FAAH assessed as kinact/Ki ratio incubated for 30 min in presence of glutamate dehydrogenase by 384-well format microplate reader assay

{"Chem smiles": "O=C(Nc1cccnn1)N1CCC(=Cc2cccc(Oc3ccc(C(F)(F)F)cn3)c2)CC1", "U": "nM", "IC50": 10.7}
